System: VDR homodimer (NR concentration 270 nM)
ASSAY DETAILS: PBM binding z-score (relative to random genomic background probes); higher = stronger binding; sequences stand for … in GC…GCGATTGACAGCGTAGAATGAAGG
PROPERTY NAME: PBM binding z-score
Lab note: jot the number down without any unit.

Reference set (3 entries):
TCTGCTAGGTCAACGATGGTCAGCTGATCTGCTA ... -0.511
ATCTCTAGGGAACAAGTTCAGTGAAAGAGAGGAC ... 2.43
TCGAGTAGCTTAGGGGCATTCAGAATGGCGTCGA ... 0.282

Please find the next sequence below.
The sequence listed as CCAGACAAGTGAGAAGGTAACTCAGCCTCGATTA shows PBM binding z-score equal to 0.281
